pKd: −log10 of the molar value.
// Human Cbl-b (residues 40-426) (Homo sapiens (Human), UniProt Q13191) pKd records
quantity: pKd

>>> measurement("CCOc1cc(N2Cc3c(cc(CNC4(C)CCC4)cc3C(F)(F)F)C2=O)cc([C@]2(c3nncn3C)C[C@H](OC)C2)c1")
8.48
>>> measurement("Cn1cnnc1C1(c2cccc(N3Cc4c(cc([C@H](O)CO)cc4C(F)(F)F)C3=O)c2)CCC1 (single isomer, unassigned)")
6.39
>>> measurement("Cn1cnnc1[C@]1(c2cccc(N3Cc4c(cc(CNC5(C)CCC5)cc4C(F)(F)F)C3=O)c2)C[C@H](C)C1")
8.40

====

# target entity: UniProt Q13191
# assay details: Cbl-b LCK Ub TR-FRET assay (Cbl-b Lck HTRF)
# Type: biochemical
# run parameters: Cbl-b LCK Ub TR-FRET
pIC50: −log10 of the molar value.
Think of 7 as a floor: if pIC50 stands on it or above, it is satisfied; beneath it, not satisfied.

>>> label_value("CCc1cc(N2Cc3c(cc(CNC4(C)CCC4)cc3C(F)(F)F)C2=O)cc([C@]2(c3nncn3C)C[C@H](OC)C2)c1")
"satisfied"
>>> label_value("Cn1cnnc1C1(c2cccc(N3Cc4c(cc(CNC5(C)CCC5)cc4C(F)(F)F)C3=O)c2)CN(C2COC2)C1")
"not satisfied"
>>> label_value("Cn1cnnc1C1(c2cccc(N3Cc4c(cc(CNC5(C)CCC5)cc4C(F)(F)F)C3=O)c2)CC2(CN(CC(F)(F)F)C2)C1")
"not satisfied"
>>> label_value("Cn1cnnc1[C@H](c1cccc(N2Cc3c(cc(CNC4(C)CCC4)cc3C(F)(F)F)C2=O)c1)[C@H]1C[C@@H](C)C1 (single isomer, unassigned)")
"not satisfied"
>>> label_value("CC(=O)C1CC([C@H](c2cccc(N3Cc4c(cc(CNC5(C)CCC5)cc4C(F)(F)F)C3=O)c2)c2nncn2C)C1 (single isomer, unassigned) [Compound 385]")
"not satisfied"
>>> label_value("Cn1cnnc1[C@H](C[C@H]1CCOC1)c1cccc(N2Cc3c(cc(CNC4(C)CCC4)cc3C(F)(F)F)C2=O)c1")
"not satisfied"

====

# target entity: Cbl-b (Homo sapiens (Human), UniProt Q13191)
# Sequence (Q13191 40-426): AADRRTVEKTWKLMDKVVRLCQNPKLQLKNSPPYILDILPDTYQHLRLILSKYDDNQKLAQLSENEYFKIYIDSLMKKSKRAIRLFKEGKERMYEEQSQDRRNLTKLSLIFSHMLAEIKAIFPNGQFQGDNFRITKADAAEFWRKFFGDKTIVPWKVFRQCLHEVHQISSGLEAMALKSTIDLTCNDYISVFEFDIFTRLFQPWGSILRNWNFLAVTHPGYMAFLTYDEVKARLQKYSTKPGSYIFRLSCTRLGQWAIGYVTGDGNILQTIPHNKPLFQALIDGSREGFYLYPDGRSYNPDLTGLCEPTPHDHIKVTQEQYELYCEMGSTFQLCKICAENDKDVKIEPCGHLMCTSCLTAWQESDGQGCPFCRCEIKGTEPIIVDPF
# assay details: Cbl-b LCK Ub TR-FRET assay (Cbl-b Lck HTRF)
# Assay type: biochemical
# run parameters: Cbl-b LCK Ub TR-FRET
// values below are reported IC50
quantity: IC50

>>> measurement("Cn1cnnc1[C@H](c1cccc(N2Cc3c(cc(CNC4(C)CCC4)cc3C(F)(F)F)C2=O)c1)C1CCS(=O)(=O)CC1")
"8700 nM"
>>> measurement("Cn1cnnc1[C@]1(c2cccc(N3Cc4c(cc(CNC5(C)CCC5)cc4C(F)(F)F)C3=O)c2)C[C@](C)(O)C1")
"30 nM"
>>> measurement("CO[C@H]1C[C@](c2cc(NC3COC3)cc(N3Cc4c(cc(CNC5(C)CCC5)cc4C(F)(F)F)C3=O)c2)(c2nncn2C)C1")
"25 nM"
>>> measurement("CCc1cc(C2(c3nncn3C)CC(F)(F)C2)cc(N2Cc3c(cc(CNC4(C)CCC4)cc3C(F)(F)F)C2=O)n1")
"18 nM"
>>> measurement("CC(C)[C@H]1CN(C)CCN1Cc1cc2c(c(C(F)(F)F)c1)CN(c1cccc([C@]3(c4nncn4C)C[C@@H](C#N)C3)c1)C2=O (single isomer, unassigned)")
"24 nM"
>>> measurement("Cn1cnnc1C1(c2cccc(N3Cc4c(cc(CNC5(C)CCC5)cc4C(F)(F)F)C3=O)c2)COC1")
"280 nM"
>>> measurement("Cn1cnnc1[C@@H](c1cccc(N2Cc3c(cc(CNC4(C)CCC4)cc3C(F)(F)F)C2=O)c1)C1CC(OCC(F)F)C1 (stereo partly drawn) [Compound 260]")
"450 nM"
>>> measurement("Cn1cnnc1[C@@H](C[C@@H]1CCOC1)c1cccc(N2Cc3c(cc(CNC4(C)CCC4)cc3C(F)(F)F)C2=O)c1")
"≥ 20000 nM"
>>> measurement("Cn1cnnc1[C@]1(c2cccc(N3Cc4c(cc(CNC5(C)CCC5)cc4C(F)(F)F)C3=O)c2)C[C@@H]([S@+](C)[O-])C1 (single isomer, unassigned)")
"1300 nM"
>>> measurement("Cn1cnnc1[C@@](O)(c1cccc(N2Cc3c(cc(CNC4(C)CCC4)cc3C(F)(F)F)C2=O)c1)C1CCC1 (single isomer, unassigned)")
"16 nM"
>>> measurement("Cn1cnnc1[C@@H](OC1CC1)c1cccc(N2Cc3c(cc(CNC4(C)CCC4)cc3C(F)(F)F)C2=O)c1 (single isomer, unassigned)")
"4200 nM"
>>> measurement("Cn1cnnc1[C@@](O)(c1cccc(N2Cc3c(cc(CNC4(C)CCC4)cc3C(F)(F)F)C2=O)c1)C(F)(F)F (single isomer, unassigned)")
"27 nM"
